# Test system: Serratia marcescens S6
# test_protocol: MIC, NCCLS broth microdilution
# Type: cell-based
# applied_conditions: with 102 and sulbactam
// reported MIC of antibiotic at fixed inhibitor concentration of 4 mg/L per item
experimental_endpoint: MIC of antibiotic at fixed inhibitor concentration of 4 mg/L (µg/mL)

molecule	measurement_qualifier	test_value
C[C@H]1[C@H](NC(=O)/C(=N\OCc2cc(=O)c(O)cn2O)c2nc(N)sc2Cl)C(=O)N1OS(=O)(=O)O [Compound 29]	=	8
C[C@H]1[C@H](NC(=O)/C(=N\OC(C)(C)C(=O)O)c2csc(N)n2)C(=O)N1S(=O)(=O)O [Aztreonam, aztreonam, reference compound]	=	2
C[C@H]1[C@H](NC(=O)/C(=N\OCc2cc(=O)c(O)cn2O)c2nccc(N)n2)C(=O)N1S(=O)(=O)O [Compound 21]	=	16
CC1(C)[C@H](NC(=O)/C(=N\OCc2cc(=O)c(O)cn2O)c2csc(N)n2)C(=O)N1OS(=O)(=O)O [Compound 26]	<	0.06

Data origin: patent US20160122320A1
